Experiment: NCI Yeast Anticancer Drug Screen. Data for the sgs1 mgt1 strain (AID 161);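 further: 0% = growth of cultures given vehicle only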
Details: S. cerevisiae sgs1 mgt1 strain, at 50.0 µM (retest, dose inferred, filed as 5.0), hits give high values
Compounds without any hit were thinned out: in the full panel of roughly 79,000, 15% have a hit. Activity calls are given as the source filed them. No stated cut-off is given here; in the data, active means growth inhibition above about 70%; inactive means the rest.
Measurement Kind: growth inhibition

COc1ccc2c(c1)CCCN2CCCCCCCCCN1CCCCC1 | 81% (active)
CC(=O)Nc1ccc(C#N)c2ccccc12 | 29% (inactive)
Oc1ccc2cc(Br)ccc2c1O | 98% (active)
CCc1nc(N)nc(N)c1-c1ccc(NCCCCCCCCCCCCN)c([N+](=O)[O-])c1 | 99% (active)
C[C@H](CCC1=NCCN1)[C@H]1CC[C@H]2[C@@H]3CC[C@@H]4C[C@H](O)CC[C@]4(C)[C@H]3C[C@H](O)[C@]12C | 99% (active)
O=C1CNCCCN2CCN(CCCNCC(=O)Nc3ccc(cc3)S(=O)(=O)c3ccc(cc3)NC(=O)CNCCCN3CCN(CCCNCC(=O)Nc4ccc(cc4)S(=O)(=O)c4ccc(cc4)N1)CC3)CC2 | 99% (active)
Clc1ccc(C(c2ccc(Cl)cc2)c2cncnc2)cc1 | 95% (active)
C[n+]1c(-c2cccc(OCCCCCCCCCCOc3cccc(-c4c5cc(N)ccc5c5ccc(N)cc5[n+]4C)c3)c2)c2cc(N)ccc2c2ccc(N)cc21 | 85% (active)
CC/C(=N\NC(=S)SC)c1ccccn1 | 96% (active)
O=[N+]([O-])c1c(Br)ncn1Cc1ccccc1 | 90% (active)
O=C(COc1ccccc1)Oc1c(Cl)c(Cl)c(Cl)c(Cl)c1Cl | 98% (active)
CN1CCC(CCC(=O)OC(C)(C)C)(CN2c3ccccc3Sc3ccccc32)C1 (configuration not stated) | 96% (active)
CC(=O)OC1CC2Cc3ccccc3C3(O)COC213 (configuration not stated) | 76% (active)
Oc1ccc2cc(Br)ccc2c1 | 97% (active)
Cc1c(N=Nc2ccc(Cl)cc2)c(-c2ccccc2)n(C2OC(CO)C(O)C(O)C2O)c(=S)c1C#N (configuration not stated) | 48% (inactive)
CCCCCC(C)C1=NC(C)(C)CC(C)O1 (configuration not stated) | -68% (inactive)
Oc1cccc(NCSc2ccc(Cl)cc2)c1 | 95% (active)
O=C(c1ccc([N+](=O)[O-])cc1)c1[nH]c2ccccc2c(=O)c1-c1ccccc1 | 99% (active)
CC(=O)OC(OC(C)=O)c1ccc2ccc3cccc4ccc1c2c34 | 84% (active)
CC(C)(C)c1ccc(Br)c(CCC(=O)NO)c1 | 96% (active)
CCCCCCCCCCCCCCCCCCNCCCCCCCCCCCCCCCC | 0% (inactive)
O=C(N/C(=C\c1cc(Cl)ccc1Cl)c1nc2ccc(Cl)cc2[nH]1)c1ccccc1 | 81% (active)
